system: SW 900; assay: relative viability (nuclei count vs DMSO), 5 days (fraction); higher = more cells survive; conditions: first compound 2.53 µM
The entries below are paired with their reported relative viability.

molecule	relative viability
O=c1cc(-c2cccc3c2Sc2ccccc2S3)oc(N2CCOCC2)c1 + Cc1cc(Nc2cc(N3CCN(C)CC3)nc(Sc3ccc(NC(=O)C4CC4)cc3)n2)n[nH]1 [Tozasertib] (partner 0.1 µM)	0.486
O=c1cc(-c2cccc3c2Sc2ccccc2S3)oc(N2CCOCC2)c1 + CCNC(=O)c1noc(-c2cc(C(C)C)c(O)cc2O)c1-c1ccc(CN2CCOCC2)cc1 [Luminespib] (partner 0.01 µM)	0.149
O=c1cc(-c2cccc3c2Sc2ccccc2S3)oc(N2CCOCC2)c1 + COc1cc2c(Oc3ccc(NC(=O)C4(C(=O)Nc5ccc(F)cc5)CC4)cc3F)ccnc2cc1OCCCN1CCOCC1 [Foretinib] (partner 0.25 µM)	0.723
COc1nc(C)cnc1NS(=O)(=O)c1cccnc1-c1ccc(-c2nnco2)cc1 [Zibotentan] + CC(=O)c1c(C)c2cnc(Nc3ccc(N4CCNCC4)cn3)nc2n(C2CCCC2)c1=O [Palbociclib] (partner 0.5 µM)	0.564
COc1nc(C)cnc1NS(=O)(=O)c1cccnc1-c1ccc(-c2nnco2)cc1 [Zibotentan] + COc1cccc2cc(-c3nc([C@H]4CC[C@H](C(=O)O)CC4)n4ncnc(N)c34)[nH]c12 [OSI-027] (partner 0.5 µM)	0.496
O=c1cc(-c2cccc3c2Sc2ccccc2S3)oc(N2CCOCC2)c1 + Nc1ncn([C@H]2C[C@H](O)[C@@H](CO)O2)c(=O)n1 [Decitabine] (partner 2 µM)	0.428
O=c1cc(-c2cccc3c2Sc2ccccc2S3)oc(N2CCOCC2)c1 + O=C(c1cc(Cc2n[nH]c(=O)c3ccccc23)ccc1F)N1CCN(C(=O)C2CC2)CC1 [Olaparib] (partner 8 µM)	0.702

----------
test system: COR-L 105; test: relative viability (nuclei count vs DMSO), 5 days (fraction); higher = more cells survive; settings: first compound 0.08 µM
Lab note: cut-off is 0.8. Strictly less in relative viability is MET. Exactly 0.8 or more is NOT MET.

compound	group label
COc1nc(C)cnc1NS(=O)(=O)c1cccnc1-c1ccc(-c2nnco2)cc1 [Zibotentan] + C[C@@H](Oc1cc(-c2cnn(C3CCNCC3)c2)cnc1N)c1c(Cl)ccc(F)c1Cl [Crizotinib] (partner 1 µM)	NOT MET
COc1nc(C)cnc1NS(=O)(=O)c1cccnc1-c1ccc(-c2nnco2)cc1 [Zibotentan] + CS(=O)(=O)CCNCc1ccc(-c2ccc3ncnc(Nc4ccc(OCc5cccc(F)c5)c(Cl)c4)c3c2)o1 [Lapatinib] (partner 2 µM)	MET
O=c1cc(-c2cccc3c2Sc2ccccc2S3)oc(N2CCOCC2)c1 + CS(=O)(=O)N1CCN(Cc2cc3nc(-c4cccc5[nH]ncc45)nc(N4CCOCC4)c3s2)CC1 [Pictilisib] (partner 1 µM)	MET
O=c1cc(-c2cccc3c2Sc2ccccc2S3)oc(N2CCOCC2)c1 + COc1cc2c(Oc3ccc(NC(=O)C4(C(=O)Nc5ccc(F)cc5)CC4)cc3F)ccnc2cc1OCCCN1CCOCC1 [Foretinib] (partner 0.25 µM)	NOT MET
COc1nc(C)cnc1NS(=O)(=O)c1cccnc1-c1ccc(-c2nnco2)cc1 [Zibotentan] + O=C(CCCCCCC(=O)Nc1ccccc1)NO [Vorinostat] (partner 1 µM)	NOT MET
